Assay type: in vitro ADME
Conditions Used: rat liver microsomes; note: time not given here
Parameter: Metabolic Stability R (% Rem.)

Sample answers from the record:
| Compound | Value Measured |
| --- | --- |
| Cc1ccc(-n2c(N)nc3ccc(-c4cccc([S+](C)[O-])c4)cc3c2=O)cc1 (stereo not drawn) | 68 % Rem. |
| CNc1nc2ccc(-c3cccc(S(C)(=O)=O)c3)cc2c(=O)n1-c1ccc(C(F)(F)F)cc1 | 100 % Rem. |
| Nc1nc2ccc(-c3cccc(C(=O)O)c3)cc2c(=O)n1-c1ccc(C(F)(F)F)cc1 | 97 % Rem. |
| C[S+]([O-])c1cccc(-c2ccc3nc(N)n(C4CCC(F)(F)CC4)c(=O)c3c2)c1 (stereo not drawn) | 81 % Rem. |

*Q* Could you tell me which Metabolic Stability R (% Rem.) is on file for C[S+]([O-])c1cccc(-c2ccc3nc(N)n(-c4ccc(C#N)cc4)c(=O)c3c2)c1 (stereo not drawn) ?
*A* 98 % Rem.

*Q* Likewise for `CNC(=O)c1cncc(-c2ccc3nc(N)n(-c4ccc(C(F)(F)F)cc4)c(=O)c3c2)c1` ?
*A* 85 % Rem.

*Q* What do we get for C[S+]([O-])c1cccc(-c2ccc3nc(N)n(-c4ccc(F)cc4)c(=O)c3c2)c1 (stereo not drawn) ?
*A* 93 % Rem.

*Q* // same read-out, input: `Nc1nc2ccc(-c3cccc(C(=O)N4CCSCC4)c3)cc2c(=O)n1-c1ccc(C(F)(F)F)cc1`
*A* 23 % Rem.

*Q* Entry to check: `CS(=O)(=O)c1cccc(-c2ccc3c(=O)n(-c4ccc(C(F)(F)F)cc4)c(N)nc3c2)c1`
*A* 99/99/99 % Rem.

*Q* And for `Nc1nc2ccc(-c3cccc(C(=O)NCCO)c3)cc2c(=O)n1-c1ccc(C(F)(F)F)cc1` ?
*A* 83 % Rem.

*Q* Next record, please: `Nc1nc2ccc(-c3cccc(C(=O)NCCN4CCOCC4)c3)cc2c(=O)n1-c1ccc(C(F)(F)F)cc1`
*A* 62 % Rem.

*Q* `Nc1nc2cc(-c3cccc(C(F)(F)F)c3)ccc2c(=O)n1-c1ccc(C(F)(F)F)cc1` , same question.
*A* 89 % Rem.
